List of IC50 (read off the curve) values.
ASSAYED_TARGET: T1, human PD-1 expressed on cells (human, UniProt Q15116 25-288)
T1 construct: the transgene used on the cells is not tied to it by number; also called hPD-1; CHO.hPD-1
T1 sequence (Q15116 25-288 limits assumed): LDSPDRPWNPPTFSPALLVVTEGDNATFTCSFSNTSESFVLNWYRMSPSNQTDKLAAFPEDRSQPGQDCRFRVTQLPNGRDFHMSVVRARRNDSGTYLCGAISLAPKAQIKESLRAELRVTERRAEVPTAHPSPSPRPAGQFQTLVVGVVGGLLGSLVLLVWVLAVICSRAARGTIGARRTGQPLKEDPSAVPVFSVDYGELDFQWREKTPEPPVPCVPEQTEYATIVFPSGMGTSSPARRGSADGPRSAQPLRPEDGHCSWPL
METHOD: flow cytometry competition: blockade of human PD-L1-hFc binding to CHO-K1 cells expressing human PD-1; PE goat anti-human IgG

F023701193 (1PD102C12 (E1D, L11V, A14P, W52aV, N73P, A74S, K83R, I89L, W100aF)-HIS6) (VHH, monovalent anti-human PD-1 Nanobody variant; not shown: C-terminal HIS6 tag) VHH: DVQLVESGGGVVQPGGSLRLSCAASGSIASIHAMGWFRQAPGKEREFVAVITVSGGITYYADSVKGRFTISRDPSKNTVYLQMNSLRPEDTALYYCAGDKHQSSFYDYWGQGTLVTVSS | ~1 nM
F023701192 (1PD102C12 (E1D, L11V, A14P, W52aV, N73Q, A74S, K83R, I89L, W100aF)-HIS6) (VHH, monovalent anti-human PD-1 Nanobody variant; not shown: C-terminal HIS6 tag) VHH: DVQLVESGGGVVQPGGSLRLSCAASGSIASIHAMGWFRQAPGKEREFVAVITVSGGITYYADSVKGRFTISRDQSKNTVYLQMNSLRPEDTALYYCAGDKHQSSFYDYWGQGTLVTVSS | ~1 nM
F023701190 (1PD102C12 (E1D, L11V, A14P, W52aV, A74S, K83R, I89L, W100aF)-HIS6) (VHH, monovalent anti-human PD-1 Nanobody variant; also called Enhanced SO 1PD102C12 monomer; not shown: C-terminal HIS6 tag) VHH: DVQLVESGGGVVQPGGSLRLSCAASGSIASIHAMGWFRQAPGKEREFVAVITVSGGITYYADSVKGRFTISRDNSKNTVYLQMNSLRPEDTALYYCAGDKHQSSFYDYWGQGTLVTVSS | ~1 nM
F023700275 (1PD102C12(A14P, A74S, K83R)-FLAG3-HIS6) (VHH, monovalent anti-human PD-1 Nanobody, parent of F023700706) VHH: EVQLVESGGGLVQPGGSLRLSCAASGSIASIHAMGWFRQAPGKEREFVAVITWSGGITYYADSVKGRFTISRDNSKNTVYLQMNSLRPEDTAIYYCAGDKHQSSWYDYWGQGTLVTVSS | ~0.3 nM
F023700929 (1PD102C12 (L11V, A14P, A74S, K83R, I89L)-HIS6) (VHH, not shown: C-terminal HIS6 tag) VHH: EVQLVESGGGVVQPGGSLRLSCAASGSIASIHAMGWFRQAPGKEREFVAVITWSGGITYYADSVKGRFTISRDNSKNTVYLQMNSLRPEDTALYYCAGDKHQSSWYDYWGQGTLVTVSS | ~1 nM

Okay, now this binder:
// field: IC50 (read off the curve); key: F023700706 (1PD102C12 (L11V, A14P, A74S, K83R, I89L)-FLAG3-HIS6) (VHH, also called SO 1PD102C12 monomer) VHH: EVQLVESGGGVVQPGGSLRLSCAASGSIASIHAMGWFRQAPGKEREFVAVITWSGGITYYADSVKGRFTISRDNSKNTVYLQMNSLRPEDTALYYCAGDKHQSSWYDYWGQGTLVTVSS ; value = ~0.6 nM
